# System: SNB-19 CNS
# protocol text: NCI tumour cell line growth inhibition, 48 h
experimental readout: TGI

A selection of reference data follows.
Nc1c(C(=O)Nc2ccc([As](=O)(O)O)cc2)cnc2nnnn12	> 100 µM
N#CC(C#N)SCc1ccccc1	> 100 µM
Fc1cccc(Cl)c1C1SCc2nc3ccccc3n21 (stereo unspecified)	> 100 µM
CCOc1snc(C(Cl)(Cl)Cl)c1Cl	74.9 µM
O=C1N/N=C\c2ccc(cc2)OCc2cccc(n2)COc2ccc(cc2)/C=N\NC1=O	> 25 µM
C=C1C(=O)O[C@@H]2C[C@@]3(C)CC(=O)C=C(C)[C@@H]3C[C@H]12	50 µM
CC(O)CNC1=CC(=O)C(=O)c2ccccc21 (stereo unspecified)	32 µM
CCc1nc(N)nc(N)c1-c1ccc([N+](=O)[O-])c(NCc2ccccc2)c1	38.9 µM

Hey, quick one: what's TGI for each of these?
1. Cc1ccc(C(=O)Cc2nc3c([nH]c2=O)c(C)nn3-c2ccccc2)c(C)c1
2. COC(=O)C1=C(C)NC(C)=C(C(=O)OC)C1c1cccc(N=O)c1
3. Oc1c(OCc2nnc(CCCCCCCCc3nnc(COc4ccc5ccccc5c4O)o3)o2)ccc2ccccc12

Result:
["> 10 µM", "> 100 µM", "> 100 µM"]

----------
# Tested on: OVCAR-3 ovarian
# protocol text: NCI tumour cell line growth inhibition, 48 h
For each of the compounds below, state its TGI.
Give bare numbers, in µM.

A selection of reference data follows.
COc1cc2c3c(cc(Cl)nc3c1OC)C(=O)C(=O)N2	32.5
CCOC(=O)c1c(NC(=O)c2ccc(C(C)C)cc2)sc2c(CN(C)C)c(O)ccc12	11.9
Cc1cc(O)c2c(c1)C(O)(c1ccc3c(c1O)C(=O)c1c(O)cc(C)cc1C3(O)C1OC(CO)C(O)C(O)C1O)c1cccc(O)c1C2=O (centres undefined)	22.6

Problem: Write down the reported TGI of Cc1cc(N(CCNc2ccnc3cc(Cl)ccc23)Cc2ccc3c(c2)OCO3)nc(N2CCN(C)CC2)n1 , test system: OVCAR-3 ovarian.
Result: 10.9

----------
For each of the compounds below, state its TGI.
# Test system: M14 melanoma
# protocol text: NCI tumour cell line growth inhibition, 48 h

Hey, quick one: what's TGI for each of these?
1. Cc1c(C)c2cc3c(=O)ccoc3c(C)c2oc1=O
2. O=C1NC(=S)NC(=O)C1C(c1ccc(Cl)cc1)C1C(=O)NC(=S)NC1=O
3. O=P(OCc1ccccc1)(OCc1ccccc1)C(O)/C=C/c1ccccc1 (stereo not drawn)
4. Cc1cc(OCc2nnc3sc(NC(=O)c4ccccc4)nn23)ccc1Cl
5. Cc1cc2c(cc1C)NC1=C(N2)OC(c2c[nH]c3ccc(COc4ccccc4)cc23)C1=O (stereo not drawn)
6. COC(=O)C1=C(C(=O)OC)SC(=C2SC3=C(SC(=C4SCCS4)S3)S2)S1

Result:
["> 100 µM", "> 100 µM", "37 µM", "> 100 µM", "> 100 µM", "> 100 µM"]

----------
# Tested on: SK-MEL-28 melanoma
# protocol text: NCI tumour cell line growth inhibition, 48 h
For each of the compounds below, state its TGI.

A selection of reference data follows.
CC(C)(C)c1cc(/C=C2/NC(=O)NC2=O)cc(C(C)(C)C)c1O	32 µM
CCCCCCCCCCCCNC(=O)CCC(NC(=O)c1ccc(N(C)Cc2cnc3nc(N)nc(N)c3n2)cc1)C(=O)NCCCCCCCCCCCC (stereo not given)	> 100 µM
COC(=O)C1=C(OC(=O)c2ccc(Cl)cc2)C(C(=O)OC)[C@@]2(O)[C@@H](C(=O)OC)C(c3ccccc3C(F)(F)F)C[C@@H]1[C@@H]2C(=O)OC (stereo not given in full)	> 100 µM
Nc1c(C(=O)Nc2ccc([As](=O)(O)O)cc2)cnc2nnnn12	> 100 µM

Hey, quick one: what's TGI for each of these?
1. C#CCOCC12C=CC(O1)C1COC(=O)C12 (stereo not given)
2. Cc1cnc2[nH]c(-c3cccc(F)c3)cc(=O)c2c1
3. O=CN1CCN(C(=O)c2ccco2)C1=S
4. CCOC(=O)C1(C(=O)OCC)CCC(C(OC)OC)C(CC(=O)OC)C1 (stereo not given)
5. COc1ccc(C(=O)N2c3ccccc3Sc3ccccc32)c(F)c1
6. CSc1ccc(C2=Nn3c(nnc3-c3ccc(F)c(Cl)c3)SC2)cc1

Result:
1. > 100 µM
2. > 100 µM
3. > 57.6 µM
4. > 10 µM
5. > 100 µM
6. > 100 µM

----------
Observed GI50, system U251 CNS.

A selection of reference data follows.
C[C@]12CC[C@@H]3c4ccc(O)c([N+](=O)[O-])c4CC[C@H]3[C@@H]1CC[C@@H]2NS(=O)(=O)c1ccc(C(F)(F)F)cc1	1.56 µM
CC(=O)c1cccc(N(/C=C/C(=O)C(F)(F)F)CC(=O)c2ccc(Cl)cc2)c1	> 100 µM
CCOC(=O)c1c(NC(=O)c2ccc(C(C)C)cc2)sc2c(CN(C)C)c(O)ccc12	2.59 µM

Hey, quick one: what's GI50 for each of these?
1. N/C(=N\OC(=O)c1ccccc1)C(C(=O)NOC(=O)c1ccccc1)C1CCCCC1 (centres undefined)
2. CS(=O)(=O)c1ccc(Cl)c([N+](=O)[O-])c1

Result:
1.78 µM
15.2 µM

----------
For each of the molecules below, state its TGI.
# System: KM20L2 colon
# protocol text: NCI tumour cell line growth inhibition, 48 h

CC[O-].CC[O-].O=C1C(=C([O-])c2ccccc2)C(=O)c2ccccc21.O=C1C(=C([O-])c2ccccc2)C(=O)c2ccccc21.[Ti+4]	> 100 µM
COc1cc2nncc(Sc3cnnc4ccccc34)c2cc1OC	68.3 µM

Hey, quick one: what's TGI for each of these?
1. Clc1ccc([O][In]([O]c2ccc(Cl)cn2)[O]c2ccc(Cl)cn2)nc1
2. O=C1c2ccccc2N2OC3(N4CCCC4)CCCC3C12c1ccccc1 (configuration not stated)
3. Fc1cccc(Cl)c1C1SCc2nc3ccccc3n21 (configuration not stated)

Result:
1: > 100 µM; 2: > 100 µM; 3: 49.7 µM

Hey, quick one: what's TGI for each of these?
1. O=C(CCc1nc(=S)[nH][nH]1)NC12CC3CC(CC(C3)C1)C2
2. COc1ccc(C2C(Cl)C(=O)N2n2cnc3ccccc3c2=O)cc1OC (configuration not stated)

Result:
> 100 µM
> 100 µM

----------
# Test system: HL-60(TB) leukemia
# protocol text: NCI tumour cell line growth inhibition, 48 h
experimental readout: TGI

Hey, quick one: what's TGI for each of these?
1. CC[N+]1(C)CCC(O)(c2ccc(C)cc2)C(C(=O)c2ccc(C)cc2)C1 (stereo not given)
2. Cc1nnc2n1-c1ccccc1N(Cc1ccccc1)CC2
3. CSc1nc2c(c(O)c(C)c(=O)n2C2OC(COC(C)=O)C(OC(C)=O)C(OC(C)=O)C2OC(C)=O)c(=O)n1C (stereo not given)
4. O=c1[nH]c(=O)n(C2CC(O)C(CO)O2)cc1OC/C=C/Cc1ccccc1 (stereo not given)
5. S=C(N/N=C/c1cc(Cl)cc(Cl)c1)NC12CC3CC(CC(C3)C1)C2

Result:
> 100 µM
60 µM
> 100 µM
> 100 µM
> 100 µM

----------
# System: HS 578T breast
# protocol text: NCI tumour cell line growth inhibition, 48 h
experimental readout: TGI

A selection of reference data follows.
CCN(c1ccc(CO)c(Cl)c1)C(C)c1ccc(F)cc1 (stereo not drawn)	40.2 µM
COc1cc(/C=C2\CN(C)CC3=C2Nc2nc(SC)[nH]c(=O)c2C3c2cc(OC)c(OC)c(OC)c2)cc(OC)c1OC (stereo not drawn)	> 100 µM
N#Cc1nc(C2CCC(=O)O2)oc1N (stereo not drawn)	> 100 µM

Hey, quick one: what's TGI for each of these?
1. O=C(/C=C\Nc1ccccc1O)C(F)(F)F
2. COc1ccc(Cl)cc1Nc1nc(C(F)(F)F)ccc1C(=O)NN
3. CC1(C)O[C@H]2OC3CCC(=O)CC3(O)[C@H]2O1 (stereo partly drawn)
4. CNC(=S)NNc1ncnc2c1c(-c1ccc(Cl)cc1)cn2-c1ccc(C)cc1

Result:
1. > 100 µM
2. > 100 µM
3. > 100 µM
4. 57.8 µM

Hey, quick one: what's TGI for each of these?
1. COCC#C[C@@]1(O)CCCCC1CC(OC)OC (stereo partly drawn)
2. C/C(=N\O)c1ccc(Nc2cc(-n3nnc4ccccc43)nc3ccccc23)cc1
3. C=C1C(=O)O[C@@H]2C[C@@]3(C)CC(=O)C=C(C)[C@@H]3C[C@H]12
4. Clc1ccccc1NN(Cc1ccccn1)c1ccccc1Cl
5. CCOc1ccc(N=Nc2ccc3cc(/C(C)=N/NC(=O)/C(C#N)=C\c4ccc(N(CCC#N)CCC#N)cc4)c(=O)oc3c2)cc1

Result:
["> 100 µM", "20.4 µM", "99.7 µM", "63.9 µM", "> 10 µM"]

Hey, quick one: what's TGI for each of these?
1. Cc1cc(N(CCNc2ccnc3cc(Cl)ccc23)Cc2ccc3c(c2)OCO3)nc(N2CCN(C)CC2)n1
2. CC1=C(C(=O)NC2CCCCC2)CC(C(=O)NC2CCCCC2)=C(C)N1
3. CCOC(=O)/C=C(/C=C\COC1CCCCO1)c1ccccc1 (stereo not drawn)
4. Nc1nncc2[nH]cnc12

Result:
1: 5.2 µM; 2: > 100 µM; 3: > 100 µM; 4: > 100 µM

Hey, quick one: what's TGI for each of these?
1. COC(=O)C1=C(OC(=O)c2ccc(Cl)cc2)C(C(=O)OC)[C@@]2(O)[C@@H](C(=O)OC)C(c3ccccc3C(F)(F)F)C[C@@H]1[C@@H]2C(=O)OC (stereo partly drawn)
2. CS(=O)(=O)c1ccc(Cl)c([N+](=O)[O-])c1
3. O=c1[nH]c(=O)n(C2CC(O)C(CO)O2)cc1OC/C=C/Cc1ccccc1 (stereo not drawn)
4. C[N+]1(CCN=C=NC2CCCCC2)CCOCC1
5. O=C1c2cccnc2S(=O)(=O)N1c1ccc([N+](=O)[O-])cc1
6. Fc1cccc(COc2ccc(Nc3ncnc4sc(-c5ccco5)cc34)cc2Cl)c1

Result:
24.2 µM
89.1 µM
> 100 µM
> 100 µM
> 100 µM
> 25 µM

Problem: Request the reported TGI associated with CC(=O)C1(O)CCC2(O)C3(O)CC=C4CC(O)CCC4(C)C3CC(OC(=O)c3ccc(O)cc3)C12C (stereo not drawn)
Result: > 100 µM
